FYI, the data here is from ChEMBL document CHEMBL3832032.

Assay: Pharmacokinetic parameters for Alprazolam evaluated after oral administration of alprazolam to subjects of different ages and health conditions.
Assay type: ADME, organism-based
Parameters: route oral, dose Range 0.5 to 3
Conditions: human, in vivo; dose Range 0.5 to 3 mg, dosed compound id 23, dosed compound name ALPRAZOLAM, gender male and female, route oral, tissue Plasma
quantity-name: Tmax

{"structure": "Cc1nnc2n1-c1ccc(Cl)cc1C(c1ccccc1)=NC2", "quantity-name": "Tmax", "measured": "1 to 2 h"}
